Biological target: T1, human PAC1 receptor extracellular domain (ECD) (human, UniProt P41586 24-153)
T1 construct: also called PAC1 receptor ECD; PAC1 ECD
T1 sequence: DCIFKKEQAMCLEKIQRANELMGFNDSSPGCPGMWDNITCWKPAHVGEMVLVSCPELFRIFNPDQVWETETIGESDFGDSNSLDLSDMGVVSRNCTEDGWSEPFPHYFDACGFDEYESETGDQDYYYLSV
Test: yeast-displayed Fab, FACS, 10 nM PAC1 receptor ECD
With a cut-off of 0.9 fold, any Mutant vs. 4E4.2 Parent B/D Ratio strictly below it is called 1; any Mutant vs. 4E4.2 Parent B/D Ratio meeting it or above is called 0.

Below, 3 binders whose answers are already recorded.
• anti-CGRP receptor variant 14, yeast-displayed Fab (Fab, V domains shown, also called Variant Ab ID 14) VH: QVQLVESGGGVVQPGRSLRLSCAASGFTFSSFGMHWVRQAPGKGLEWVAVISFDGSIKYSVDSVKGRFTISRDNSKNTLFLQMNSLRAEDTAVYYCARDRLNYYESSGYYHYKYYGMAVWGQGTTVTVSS VL: QSVLTQPPSVSAAPGQKVTISCSGSSSNIGNNYVSWYQQLPGTAPKLLIYDNNKRPSGIPDRFSGSKSGTSATLGITGLQTGDEADYYCGTWDSWHRVVTFGGGTKLTVLG = 1
• anti-CGRP receptor variant 04, yeast-displayed Fab (Fab, V domains shown, also called Variant Ab ID 04) VH: QVQLVESGGGVVQPGRSLRLSCAASGFTFSSFGMHWVRQAPGKGLEWVAVISFDGSIKYSVDSVKGRFTISRDNSKNTLFLQMNSLRAEDTAVYYCARDRLNYYRSFGYYGYHYYGMAVWGQGTTVTVSS VL: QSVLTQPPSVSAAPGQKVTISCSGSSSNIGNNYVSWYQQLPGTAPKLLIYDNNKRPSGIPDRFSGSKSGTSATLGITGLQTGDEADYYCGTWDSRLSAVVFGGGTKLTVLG = 0
• anti-CGRP receptor variant 09, yeast-displayed Fab (Fab, V domains shown, also called Variant Ab ID 09) VH: QVQLVESGGGVVQPGRSLRLSCAASGFTFSSFGMHWVRQAPGKGLEWVAVISFAGEIDYYVDSVKGRFTISRDNSKNTLFLQMNSLRAEDTAVYYCARDRLNYYESSGYYHYKYYGMAVWGQGTTVTVSS VL: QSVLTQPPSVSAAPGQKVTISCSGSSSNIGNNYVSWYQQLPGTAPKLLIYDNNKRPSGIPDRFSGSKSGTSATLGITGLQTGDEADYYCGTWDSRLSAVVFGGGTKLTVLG = 0

Prompt: Would you kindly verify if Mutant vs. 4E4.2 Parent B/D Ratio of anti-CGRP receptor variant 01, yeast-displayed Fab (Fab, V domains shown, also called Variant Ab ID 01) VH: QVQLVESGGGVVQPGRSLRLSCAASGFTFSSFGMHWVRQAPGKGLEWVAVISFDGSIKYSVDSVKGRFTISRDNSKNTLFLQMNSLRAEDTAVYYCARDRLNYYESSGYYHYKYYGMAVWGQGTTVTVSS VL: QSVLTQPPSVSAAPGQKVTISCSGSYSNIGRYSVSWYQQLPGTAPKLLIYDNNKRPSGIPDRFSGSKSGTSATLGITGLQTGDEADYYCGTWDSRLSAVVFGGGTKLTVLG is strictly less than 0.9 fold?
Completion: 1

Ref: patent US20220363770A1
